The measured values listed here are drawn from PubChem BioAssay (NCI).

- System: SR leukemia
- measurement_protocol: NCI tumour cell line growth inhibition, 48 h

[
  {
    "compound": "COC(=O)CN1Cc2cc(C)cc(c2O)CN(CC(=O)OC)Cc2cc(C)cc(c2O)CN(CC(=O)OC)Cc2cc(C)cc(c2O)C1",
    "assayed_target": "SR leukemia",
    "TGI": "> 100 µM"
  },
  {
    "compound": "O=C1C=CC=C[C@@H]2C(C3OCCO3)CC[C@H]12.[C-]#[O+].[C-]#[O+].[C-]#[O+].[Fe] (stereo not given in full)",
    "assayed_target": "SR leukemia",
    "TGI": "> 83.5 µM"
  },
  {
    "compound": "COc1ccc(C(CC(C)=O)c2c(O)c3ccccc3oc2=O)cc1OC (stereo not given)",
    "assayed_target": "SR leukemia",
    "TGI": "> 100 µM"
  },
  {
    "compound": "COc1cc2c(cc1OC)C(C#N)(Cc1ccccc1)N(C(=O)c1ccccc1)C=C2 (stereo not given)",
    "assayed_target": "SR leukemia",
    "TGI": "> 100 µM"
  },
  {
    "compound": "O=C1OC(c2ccccc2)=N/C1=C\\c1ccc(Cl)cc1",
    "assayed_target": "SR leukemia",
    "TGI": "> 100 µM"
  }
]

* * *

- System: CAKI-1 renal
- measurement_protocol: NCI tumour cell line growth inhibition, 48 h
TGI for assorted compounds

[
  {
    "compound": "COC(=O)/C(=N/NC(N)=O)C(C(=O)C(=O)Nc1ccc(C)cc1)c1nc2ccc(C(=O)c3ccccc3)cc2[nH]c1=O (stereo not given)",
    "TGI": "> 100 µM"
  },
  {
    "compound": "COc1ccc(-c2c(C#N)c(=O)nc(SC)n2C2OCC(OC(C)=O)C(OC(C)=O)C2OC(C)=O)cc1 (stereo not given)",
    "TGI": "> 100 µM"
  },
  {
    "compound": "O=[As]O",
    "TGI": "> 100 µM"
  },
  {
    "compound": "COc1cccc(CC2C(=O)N=C(NC(C)=O)N2C)c1OC(C)=O (stereo not given)",
    "TGI": "> 100 µM"
  },
  {
    "compound": "N#Cc1c(-c2ccc(Cl)cc2)cc(-c2ccc(Nc3ccnc4cc(Cl)ccc34)cc2)nc1N",
    "TGI": "> 100 µM"
  }
]

* * *

- Test system: M14 melanoma
- measurement_protocol: NCI tumour cell line growth inhibition, 48 h
TGI for assorted compounds

[
  {
    "compound": "COc1ccc(C2SCc3nc4ccccc4n32)cc1 (stereo not drawn)",
    "TGI": "> 100 µM"
  },
  {
    "compound": "COc1ccc(-c2nc(N)n(C)c2SSc2c(-c3ccc(OC)cc3)nc(N)n2C)cc1",
    "TGI": "4.87 µM"
  },
  {
    "compound": "N#C/C(=C/NC(=S)NCc1ccccc1)C(N)=O",
    "TGI": "> 100 µM"
  },
  {
    "compound": "O=[N+]([O-])/C(C(Cl)=C(Cl)Cl)=C1\\NCCS1",
    "TGI": "> 100 µM"
  },
  {
    "compound": "Clc1ccc2c(NCCNC3CCCCC3)ccnc2c1",
    "TGI": "3.41 µM"
  },
  {
    "compound": "COc1ccc(N2C(Cl)C(=O)C2c2c[nH]c3ccccc23)cc1 (stereo not drawn)",
    "TGI": "> 100 µM"
  },
  {
    "compound": "CCCN1CCN(c2ccc3nc(-c4ccc5nc(-c6ccc(C(F)(F)F)cc6)[nH]c5c4)[nH]c3c2)CC1",
    "TGI": "2.88 µM"
  },
  {
    "compound": "CC(C)(C)OC(=O)NC(Cc1ccc(OCc2ccccc2)cn1)C(=O)N1CCCC1 (stereo not drawn)",
    "TGI": "> 100 µM"
  }
]
